- TEST NAME: Cytostatic/cytotoxic effect, MTT (MTS) assay in Huh 9-13 cells
- Assay type: cell-based
- MEASUREMENT CONTEXT: metabolic activity reduced to 50% of untreated cells
Square brackets hold non-standard residues; d marks the D form. Peptide text beside a SMILES is read from it. MeBmt = C/C=C/C[C@@H](C)[C@@H](O)[C@H](NC)C(=O)O; NMeI = CC[C@H](C)[C@H](NC)C(=O)O; NMeL = CN[C@@H](CC(C)C)C(=O)O; NMeV = CN[C@H](C(=O)O)C(C)C; dHiv = CC(C)[C@@H](O)C(=O)O; dNMeA = CN[C@H](C)C(=O)O; Abu = CC[C@H](N)C(=O)O; Sar = CNCC(=O)O
CC50 listing for selected compounds.
MEASURED PARAMETER: CC50 (µM)

>>> readout_value("C/C=C/C[C@@H](C)[C@@H](O)[C@H]1C(=O)N[C@@H](CC)C(=O)N(C)[C@H](C)C(=O)N(C)[C@@H]([C@@H](C)CC)C(=O)N[C@@H](CC(C)C)C(=O)N(C)[C@@H](CC(C)C)C(=O)NCC(=O)O[C@H](C(C)C)C(=O)N(C)[C@@H](CC(C)C)C(=O)N[C@@H](CC(C)C)C(=O)N(C)[C@@H](C(C)C)C(=O)N1C [(Ii)] (cyclo([Abu][dNMeA][NMeI]L[NMeL]G[dHiv][NMeL]L[NMeV][MeBmt]))")
25.4
>>> readout_value("C/C=C/C[C@@H](C)[C@@H](O)[C@H]1C(=O)N[C@@H](C(C)C)C(=O)N(C)[C@H](C)C(=O)N(C)[C@@H](C(C)C)C(=O)N[C@@H](C(C)C)C(=O)N(C)CC(=O)NCC(=O)O[C@H](C(C)C)C(=O)N(C)[C@@H](CC(C)C)C(=O)N[C@@H](CC(C)C)C(=O)N(C)[C@@H](C(C)C)C(=O)N1C [(Ik)] (cyclo(G[dHiv][NMeL]L[NMeV][MeBmt]V[dNMeA][NMeV]V[Sar]))")
9.8
>>> readout_value("C/C=C/C[C@@H](C)[C@@H](O)[C@H]1C(=O)N[C@@H](CC)C(=O)N(C)[C@H](C)C(=O)N(C)[C@@H](C(C)C)C(=O)N[C@@H]([C@@H](C)CC)C(=O)N(C)[C@@H](CC(C)C)C(=O)NCC(=O)O[C@H](C(C)C)C(=O)N(C)[C@@H](CC(C)C)C(=O)N[C@@H](CC(C)C)C(=O)N(C)[C@@H](C(C)C)C(=O)N1C [(Ig)] (cyclo([Abu][dNMeA][NMeV]I[NMeL]G[dHiv][NMeL]L[NMeV][MeBmt]))")
67
